MEASURED_PROPERTY: Ki

Ask | Look up and report Ki, with human σ1 receptor (Homo sapiens, UniProt Q99720) as system, for CC(C)OCCN1CCC2(CC1)CCN(S(=O)(=O)c1ccc(C(F)(F)F)nc1)CC2
Reply | 100 to 500 nM

Ask | # assay system human σ1 receptor (Homo sapiens, UniProt Q99720): give Ki of O=S(=O)(c1ccc(N2CCOCC2)nc1)N1CCC2(CCN(Cc3ccccc3)CC2)CC1
Reply | > 1000 nM

Ask | Name the recorded Ki of N#Cc1cc(CN2CCC3(CC2)CCN(S(=O)(=O)c2ccc(N4CCOC4=O)nc2)C3)ccc1F , assay system human σ1 receptor (Homo sapiens, UniProt Q99720).
Reply | > 1000 nM

Ask | Give Ki; test system human σ1 receptor (Homo sapiens, UniProt Q99720); compound CC(C)(C)CCN1CCC2(CCCN(S(=O)(=O)c3ccc(C4CCOCC4)nc3)C2)CC1
Reply | < 100 nM

Ask | Fill in Ki for CC(C)(C)CCN1CCC2(CC1)CCN(S(=O)(=O)c1ccc(N3CCC(F)(F)CC3)nc1)CC2 tested with human σ1 receptor (Homo sapiens, UniProt Q99720).
Reply | < 100 nM

Ask | Quote human σ1 receptor (Homo sapiens, UniProt Q99720) Ki for entry CN(Cc1ccccc1)[C@H]1CC[C@H](NS(=O)(=O)c2ccc(N3CCC(F)(F)CC3)nc2)CC1 .
Reply | 100 to 500 nM

Ask | Write Ki of CC(C)N([C@@H]1CCN(Cc2ccc(C#N)cc2)C1)S(=O)(=O)c1ccc(N2CCOCC2)nc1 ; system used: human σ1 receptor (Homo sapiens, UniProt Q99720)
Reply | > 1000 nM

Ask | Give the observed Ki of CN(CCC(C)(C)C)[C@H]1CC[C@H](NS(=O)(=O)c2ccc(N3CCOCC3)nc2)CC1 for human σ1 receptor (Homo sapiens, UniProt Q99720).
Reply | 500 to 1000 nM

Ask | Specify Ki for O=C1OCCN1c1ccc(S(=O)(=O)N2CCC3(CCN(CC4CCOCC4)CC3)CC2)cn1 , system human σ1 receptor (Homo sapiens, UniProt Q99720).
Reply | 500 to 1000 nM

Ask | Given CC(C)(C)CCN1CCC2(CC1)CCN(S(=O)(=O)c1ccc(-c3ccncc3)nc1)CC2 , report its Ki on human σ1 receptor (Homo sapiens, UniProt Q99720).
Reply | 100 to 500 nM

Ask | Give reported Ki for O=S(=O)(c1ccc(N2CCOCC2)nc1)N1CCC2(CCN(Cc3ccccc3)C2)CC1 (human σ1 receptor (Homo sapiens, UniProt Q99720))
Reply | > 1000 nM

Ask | Report measured Ki on human σ1 receptor (Homo sapiens, UniProt Q99720); entry: N#Cc1cccc(CN2CCC3(CC2)CCN(S(=O)(=O)c2ccc(N4CCOCC4)nc2)CC3)c1
Reply | > 1000 nM

Ask | Look up and report Ki, with human σ1 receptor (Homo sapiens, UniProt Q99720) as system, for CC(C)(C)CCN1CCC2(CC1)CCN(S(=O)(=O)c1ccc(N3CCOCC3)nc1)C2
Reply | 100 to 500 nM

Ask | Enter Ki (test system human σ1 receptor (Homo sapiens, UniProt Q99720)) for O=C1OCCN1c1ccc(S(=O)(=O)N2CCC3(CCN(Cc4ccccc4)CC3)C2)cn1
Reply | 100 to 500 nM

Ask | Give Ki for this entry on human σ1 receptor (Homo sapiens, UniProt Q99720): O=C1OCCN1c1ccc(S(=O)(=O)N2CCC3(CCN(Cc4cc(F)ccc4F)CC3)C2)cn1
Reply | > 1000 nM

Ask | Give Ki for this entry on human σ1 receptor (Homo sapiens, UniProt Q99720): O=S(=O)(c1ccc(N2CCOCC2)nc1)N1CCC[C@@H](CNCc2ccc(O)nc2)C1
Reply | > 1000 nM

---

Target: human σ2/TMEM97 receptor (Homo sapiens)
Test: Binding assay to human σ2/TMEM97 receptor
Details: transfected HEK-293 membranes, 10 nM [3H]-DTG, 25° C. 120 minutes; + may also stand for 1-50% inhibition at 1 or 10 μM; read-out: Binding σ-2 Ki
MEASURED_PROPERTY: Ki

Ask | State its Ki: N#Cc1ccc(CN2CC[C@@H](NS(=O)(=O)c3ccc(N4CCOCC4)nc3)C2)cc1
Reply | > 1000 nM

Ask | Indicate the recorded Ki value for this compound: O=S(=O)(c1ccc(N2CCOCC2)nc1)N1CCC2(CCN(Cc3ccccc3)C2)CC1
Reply | 100 to 500 nM

Ask | Provide one value: measured Ki of C[C@@H]1CN(Cc2ccccc2)C[C@H]1NS(=O)(=O)c1ccc(N2CCOCC2)nc1
Reply | > 1000 nM

Ask | Entry N#Cc1ccc(CN2CCC3(CCCN(S(=O)(=O)c4ccc(N5CCOCC5)nc4)C3)CC2)cc1F needs its Ki filled in; supply it.
Reply | < 100 nM

Ask | Identify the reported Ki for the following entry. O=C1OCCN1c1ccc(S(=O)(=O)N2CCCC3(CCN(Cc4cc(F)ccc4F)CC3)C2)cn1
Reply | < 100 nM

Ask | Give reported Ki value for O=S(=O)(N[C@H]1CCN(Cc2ccccc2)C1)c1ccc(N2CCOCC2)nc1
Reply | > 1000 nM

Ask | Give Ki for the following compound: CC(C)(C)CCN1CCC2(CCCN(S(=O)(=O)c3ccc(N4CCC5(CCOC5)CC4)nc3)C2)CC1
Reply | < 100 nM

Ask | Give recorded Ki. CN(Cc1ccccc1)[C@H]1CC[C@H](NS(=O)(=O)c2ccc(N3CCC4(CCCO4)CC3)nc2)CC1
Reply | < 100 nM

Ask | Entry CN(Cc1ccccc1)C1CCN(S(=O)(=O)c2ccc(N3CCOC3=O)nc2)CC1 needs its Ki filled in; supply it.
Reply | < 100 nM

Ask | For CN(Cc1cc(F)ccc1F)C1CCN(S(=O)(=O)c2ccc(N3CCC(F)(F)CC3)nc2)CC1 , write its Ki.
Reply | 100 to 500 nM

Ask | Recall and state the measured Ki for CN(Cc1ccncc1)[C@H]1CC[C@H](NS(=O)(=O)c2ccc(N3CCOCC3)nc2)CC1 .
Reply | 100 to 500 nM

Ask | Indicate its recorded Ki; the compound in question is CC(C)(C)CCN1CCC2(CC1)CCN(S(=O)(=O)c1ccc(C(F)(F)F)nc1)C2
Reply | < 100 nM

Ask | Report measured Ki; entry is N#Cc1ccc(CN2CC[C@H](NS(=O)(=O)c3ccc(N4CCOCC4)nc3)C2)cc1
Reply | > 1000 nM

Ask | Specify measured Ki for CN(Cc1ccccc1F)[C@H]1CC[C@H](NS(=O)(=O)c2ccc(N3CCC4(CCCO4)CC3)nc2)CC1 .
Reply | < 100 nM

Ask | # return recorded Ki for input CN(Cc1ccc(F)c(F)c1)[C@H]1CC[C@H](NS(=O)(=O)c2ccc(N3CCC4(CCOC4)CC3)nc2)CC1
Reply | < 100 nM

Ask | Tell me Ki reported for CN(CCC(C)(C)C)[C@H]1CC[C@H](NS(=O)(=O)c2ccc(N3CCOCC3)nc2)CC1
Reply | < 100 nM

---

Biological target: human σ2/TMEM97 receptor (Homo sapiens)
Test: Binding assay to human σ2/TMEM97 receptor
Conditions: transfected HEK-293 membranes, 10 nM [3H]-DTG, 25° C. 120 minutes; + may also stand for 1-50% inhibition at 1 or 10 μM; read-out: Binding σ-2 Ki
Kindly state Ki for each of the entries shown.

Ask | Give the reported Ki for this compound. CC(C)(C)CCN1CCC2(CC1)CCN(S(=O)(=O)c1ccc(N3CCS(=O)(=O)CC3)nc1)CC2
Reply | < 100 nM

Ask | Identify measured Ki corresponding to N#Cc1ccc(CN2CCC3(CC2)CCN(S(=O)(=O)c2ccc(N4CCOC4=O)nc2)C3)cc1F
Reply | 100 to 500 nM

Ask | Using known records, supply Ki for N#Cc1ccc(CN2CCC3(CCCN(S(=O)(=O)c4ccc(N5CCOC5=O)nc4)C3)CC2)c(F)c1
Reply | < 100 nM

Ask | Give the value of Ki reported for the following: CN(Cc1ccc(F)cc1)[C@H]1CC[C@H](NS(=O)(=O)c2ccc(N3CCOCC3)cn2)CC1
Reply | < 100 nM

---

Biological target: human σ2/TMEM97 receptor (Homo sapiens, UniProt Q5BJF2)
Sequence (Q5BJF2 whole entry): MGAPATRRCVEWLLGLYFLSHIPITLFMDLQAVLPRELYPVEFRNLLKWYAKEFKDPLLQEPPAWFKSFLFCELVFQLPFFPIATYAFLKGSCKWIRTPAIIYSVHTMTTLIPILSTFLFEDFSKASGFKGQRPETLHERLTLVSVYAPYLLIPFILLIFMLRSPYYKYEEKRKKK
Assay: Binding assay to human σ2/TMEM97 receptor
Conditions: transfected HEK-293 membranes, 10 nM [3H]-DTG, 25° C. 120 minutes; + may also stand for 1-50% inhibition at 1 or 10 μM; read-out: Binding σ-2 Ki
pKi: −log10 of the molar value.
MEASURED_PROPERTY: pKi

Ask | Given CC(C)(C)CCN1CCCC2(CCN(S(=O)(=O)c3ccc(N4CCOCC4)nc3)CC2)C1 , report its pKi on human σ2/TMEM97 receptor (Homo sapiens, UniProt Q5BJF2).
Reply | > 7.00

Ask | Name the value of pKi reported for O=S(=O)(c1ccc(N2CCC(F)(F)CC2)nc1)N1CCC2(CCCN(CC3CCOCC3)C2)CC1 when tested on human σ2/TMEM97 receptor (Homo sapiens, UniProt Q5BJF2).
Reply | 6.30 to 7.00

Ask | Specify the recorded pKi for CC(C)(C)CCN1CCC2(CCCN(S(=O)(=O)c3ccc(C(F)(F)F)nc3)C2)CC1 , system: human σ2/TMEM97 receptor (Homo sapiens, UniProt Q5BJF2).
Reply | > 7.00

Ask | Look up human σ2/TMEM97 receptor (Homo sapiens, UniProt Q5BJF2) data: pKi of N#Cc1cccc(CN2CC[C@H](NS(=O)(=O)c3ccc(N4CCOCC4)nc3)C2)c1 , then report it.
Reply | < 6.00

Ask | Under human σ2/TMEM97 receptor (Homo sapiens, UniProt Q5BJF2): report pKi of CC(C)(C)CCN1CCCC2(CCN(S(=O)(=O)c3ccc(N4CCC5(CCCO5)CC4)nc3)CC2)C1 .
Reply | > 7.00

Ask | Please report the measured pKi for CN(CC1CCOCC1)[C@H]1CC[C@H](NS(=O)(=O)c2ccc(N3CCC4(CCOC4)CC3)nc2)CC1 tested on human σ2/TMEM97 receptor (Homo sapiens, UniProt Q5BJF2).
Reply | 6.00 to 6.30

Ask | State measured pKi of the molecule CN(CC1CCOCC1)C1CCN(S(=O)(=O)c2ccc(N3CCC(F)(F)CC3)nc2)CC1 with human σ2/TMEM97 receptor (Homo sapiens, UniProt Q5BJF2).
Reply | > 7.00

Ask | Quote pKi with test system human σ2/TMEM97 receptor (Homo sapiens, UniProt Q5BJF2) for CC(C)(C)CCN1CCC2(CC1)CCN(S(=O)(=O)c1ccc(-c3ccncc3)nc1)CC2
Reply | > 7.00
